assay: Liver microsome stability assay; format: in vitro ADME, human; details: human, liver microsomes, pH 7.4, human liver microsomes
EXPERIMENTAL_ENDPOINT: half-life (min)

{"columns": ["MOLECULE", "half-life, min"],
 "data": [
  ["CN(C)CCNCC(=O)Nc1ccc(Nc2nccc(Oc3ccc(NC(=O)C4(C(=O)Nc5ccc(F)cc5)CC4)cc3)n2)cc1 [compound 13j]", 27.9],
  ["COCCN1CCN(CC(=O)Nc2ccc(Nc3nccc(Oc4ccc(NC(=O)C5(C(=O)Nc6ccc(F)cc6)CC5)cc4)n3)cc2)CC1 [compound 13k]", 38.4],
  ["COCCNc1cccc(Nc2nccc(Oc3ccc(NC(=O)C4(C(=O)Nc5ccc(F)cc5)CC4)cc3)n2)c1 [compound 13b]", 38.3]
]}

[P] CC(=O)N1CCN(c2cccc(Nc3nccc(Oc4ccc(NC(=O)C5(C(=O)Nc6ccc(F)cc6)CC5)cc4)n3)c2)CC1 [compound 13e]
[Q] CC(=O)N1CCN(c2cccc(Nc3nccc(Oc4ccc(NC(=O)c5c(C)n(C)n(-c6ccccc6)c5=O)cc4)n3)c2)CC1 [compound 17f]
**Q:** Identify the entry with the larger half-life. Options: P and Q Answer = label.
**A:** Q

Measured values drawn from paper PMC12385147 for this set.
